# Assay System: recombinant human PAI-1 (Homo sapiens, UniProt P05121)
# Sequence (P05121 24-402): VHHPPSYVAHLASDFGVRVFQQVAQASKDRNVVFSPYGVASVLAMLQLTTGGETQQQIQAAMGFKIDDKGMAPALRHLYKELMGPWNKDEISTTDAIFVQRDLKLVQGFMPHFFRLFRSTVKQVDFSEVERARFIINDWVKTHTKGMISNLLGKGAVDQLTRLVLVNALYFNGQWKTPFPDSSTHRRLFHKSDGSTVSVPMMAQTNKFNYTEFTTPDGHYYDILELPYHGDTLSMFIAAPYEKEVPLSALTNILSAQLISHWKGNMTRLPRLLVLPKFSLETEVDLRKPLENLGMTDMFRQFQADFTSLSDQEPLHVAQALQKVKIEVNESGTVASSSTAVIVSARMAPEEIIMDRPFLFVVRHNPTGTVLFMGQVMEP
# Assay Details: PAI-1 inhibitory activity, Test Method A (tPA fluorogenic substrate, Tris buffer pH8.0, 37 C)
# Format: biochemical
# Condition Parameters: test compound 25 μM; Test Method A
Reported values of Inhibitory Ratio at 25 μM (%) for individual entries
I only need the number, in %, no unit after it.

// solved cases for Inhibitory Ratio at 25 μM (%) follow
Tell me the measured Inhibitory Ratio at 25 μM (%) of O=C(O)c1cccc(N2N=C(C(F)(F)F)C(=Cc3ccc(-c4cc(C(F)(F)F)cc(C(F)(F)F)c4)o3)C2=O)c1 , please. 62

Report Inhibitory Ratio at 25 μM (%) for O=C1SC(=Cc2ccc(Cl)c(Cl)c2)C(=O)N1Cc1cc(O)c(O)c(O)c1 please. 90

If you can, please state the reported Inhibitory Ratio at 25 μM (%) value of O=C1SC(=Cc2ccc(O)c(O)c2)C(=O)N1Cc1ccc(C=Cc2cc(C(F)(F)F)cc(C(F)(F)F)c2)cc1 . 95

Can you share its Inhibitory Ratio at 25 μM (%)? I mean this compound: O=C1SC(=Cc2cc(O)c(O)c(O)c2)C(=O)N1Cc1cccc([N+](=O)[O-])c1 50

Shifting focus to the compound that follows.
What Inhibitory Ratio at 25 μM (%) value was documented for this compound, CCOC(=O)c1cc(C=C2SC(=O)N(Cc3cc(C(F)(F)F)cc(C(F)(F)F)c3)C2=O)ccc1O ? 62

---

# Assay System: recombinant human PAI-1 (Homo sapiens)
# Assay Details: PAI-1 inhibitory activity, Test Method A (tPA fluorogenic substrate, Tris buffer pH8.0, 37 C)
# Type: biochemical
# Condition Parameters: test compound 25 μM; Test Method A
Some compounds, each annotated with its measured Inhibitory Ratio at 25 μM (%).

Requested read-out: Inhibitory Ratio at 25 μM (%). Entry: CC(C)(C)c1cc(CN2C(=O)SC(=Cc3cccc(O)c3O)C2=O)cc(C(C)(C)C)c1O >99%

Look at this compound and give its reported Inhibitory Ratio at 25 μM (%). CC(C)C1=NN(c2cc(Cl)cc(Cl)c2)C(=O)C1=Cc1ccc(Cl)c([N+](=O)[O-])c1 94%

# Inhibitory Ratio at 25 μM (%) lookup, item CC1=NN(c2ccc(Cl)c(Cl)c2)C(=O)C1=Cc1cc(Br)ccc1O 63%

// query Inhibitory Ratio at 25 μM (%) value for entry CCOC1=NN(c2ccc([N+](=O)[O-])cc2)C(=O)C1=Cc1ccc(O)c(O)c1 >99%

Looking for the measured Inhibitory Ratio at 25 μM (%) of O=C1C(=Cc2ccc(O)c(O)c2)C(C(F)(F)F)=NN1c1cccc([N+](=O)[O-])c1 , can you help? >99%

Entry O=C1SC(=Cc2ccc(O)c(O)c2)C(=O)N1Cc1ccc(Br)cc1 : reported Inhibitory Ratio at 25 μM (%) = ? >99%

Which measured Inhibitory Ratio at 25 μM (%) value corresponds to O=C1SC(=Cc2ccc(O)c(O)c2)C(=O)N1Cc1cccc(Cl)c1Cl ? >99%

Consider the compound shown here: O=C1SC(=Cc2cc([N+](=O)[O-])ccc2O)C(=O)N1Cc1ccc(Cl)c(Cl)c1 What is its recorded Inhibitory Ratio at 25 μM (%)? 77%

---

# Inhibitory Ratio at 25 μM (%) annotations
# Assay System: recombinant human PAI-1 (Homo sapiens)
# Assay Details: PAI-1 inhibitory activity, Test Method A (tPA fluorogenic substrate, Tris buffer pH8.0, 37 C)
# Type: biochemical
# Condition Parameters: test compound 25 μM; Test Method A

Before answering, review these 5 worked examples.
GET /values?readout=Inhibitory Ratio at 25 μM (%)&item= CC(C)C1=NN(c2cccc([N+](=O)[O-])c2)C(=O)C1=Cc1ccc(Br)o1 53%

Bench note: what Inhibitory Ratio at 25 μM (%) did COC(=O)c1cccc(N2N=C(C(C)(C)C)C(=Cc3ccc(Cl)c(Cl)c3)C2=O)c1 show? 32%

Quick one: Inhibitory Ratio at 25 μM (%) of O=C(O)c1cccc(N2N=C(c3ccccc3)C(=Cc3ccc(Br)o3)C2=O)c1 ? 77%

Which Inhibitory Ratio at 25 μM (%) is listed for Cc1cc(C)cc(CN2C(=O)SC(=Cc3cccc(O)c3O)C2=O)c1 ? >99%

I'd like to know its Inhibitory Ratio at 25 μM (%). The molecule in question is O=C1SC(=Cc2cccc(O)c2O)C(=O)N1Cc1cccc(Cl)c1 >99%

New cases:
Can you look up the measured Inhibitory Ratio at 25 μM (%) of O=C1SC(=Cc2cc(O)c(O)c(O)c2)C(=O)N1Cc1ccc(Cl)c(Cl)c1 for me? >99%

Please report the recorded Inhibitory Ratio at 25 μM (%) for O=C1SC(=Cc2cccc(O)c2O)C(=O)N1Cc1cccc(Oc2ccccc2)c1 . >99%

GET /values?readout=Inhibitory Ratio at 25 μM (%)&item= O=C1SC(=Cc2cccc(O)c2O)C(=O)N1Cc1ccc(Cl)c(Cl)c1 >99%

// provenance: patent US20070276011A1
